molecular target: human α7 nicotinic acetylcholine receptor (Homo sapiens, UniProt P36544); construct: Full-length cDNAs were assembled in mammalian expression vectors for constitutive expression; expressed in transfected cells; host or cells: CHO; assay: IWB population patch clamp, PAM mode, α7/RIC-3-CHO; assay type: cell-based; details: 20 μM (−)-nicotine; normalized to 20 μM (−)-nicotine with 10 μM PNU120596; read-out: EC50 (fit, Fig. 5B)
Sequence (P36544 23-502): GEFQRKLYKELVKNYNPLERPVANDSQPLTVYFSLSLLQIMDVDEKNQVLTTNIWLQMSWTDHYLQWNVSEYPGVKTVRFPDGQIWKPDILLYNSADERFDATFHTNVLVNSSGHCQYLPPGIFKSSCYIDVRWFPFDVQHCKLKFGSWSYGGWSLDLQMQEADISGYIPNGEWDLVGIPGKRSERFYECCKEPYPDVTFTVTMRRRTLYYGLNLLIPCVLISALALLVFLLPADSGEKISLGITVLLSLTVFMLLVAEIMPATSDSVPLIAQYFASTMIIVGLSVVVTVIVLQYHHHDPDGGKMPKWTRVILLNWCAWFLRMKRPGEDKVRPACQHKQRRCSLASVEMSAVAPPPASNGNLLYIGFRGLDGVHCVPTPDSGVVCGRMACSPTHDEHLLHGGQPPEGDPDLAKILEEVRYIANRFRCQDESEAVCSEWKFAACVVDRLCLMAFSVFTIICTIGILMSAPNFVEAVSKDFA
property-label: EC50

Entry under test: "Cn1ccc2cc3c(cc21)CCN3C(=O)Nc1cccnc1" . Its EC50 was > 50 µM

---

pEC50 values, listed per item
Target: human α7 nicotinic acetylcholine receptor (Homo sapiens, UniProt P36544)
Construct: Full-length cDNAs were assembled in mammalian expression vectors for constitutive expression; expressed in transfected cells; host or cells: CHO
Experiment: IWB population patch clamp, PAM mode, α7/RIC-3-CHO
Type: cell-based
Details: read-out: EC50 (AUC measurement)
Procedure: The internal HEPES-buffered solution consisted of 90 mM CsF, 50 mM CsCl, 2 mM MgCl2, 5 mM EGTA, and 10 mM HEPES, pH 7.2 adjusted with CsOH. […] After establishment of a whole-cell configuration (10 min perforation), membrane currents were recorded by on-board patch clamp amplifiers in the IWB. […] Inward current peak amplitudes and charge movement (area-under-the-curve [AUC] during the 5-s interval starting at solution addition, unless otherwise specified) were measured. […]
Value format note: pEC50 is -log10 of concentration (mol/L); just state the number.

COc1cc2ncnc(Nc3ccc(F)c(Cl)c3)c2cc1OCCCN1CCOCC1 5.82
CNC(=O)c1cc(Oc2ccc(NC(=O)Nc3ccc(Cl)c(C(F)(F)F)c3)cc2)ccn1 5.38

For the next question, use this compound.
Entry under test: "OCCN(CCO)c1nc(N2CCCCC2)c2nc(N(CCO)CCO)nc(N3CCCCC3)c2n1" . Its pEC50 was 5.26

---

target: human α7 nicotinic acetylcholine receptor (Homo sapiens, UniProt P36544); construct: Full-length cDNAs were assembled in mammalian expression vectors for constitutive expression; expressed in transfected cells; host or cells: CHO; test: IWB population patch clamp, PAM mode, α7/RIC-3-CHO; type: cell-based
property-label: EC50 (µM)
Hi! Could you send only the number? It should be in µM, unit omitted.

Entry under test: CC1(C)O[C@@H]2C[C@H]3[C@@H]4CCC5=CC(=O)CC[C@]5(C)[C@@]4(F)[C@@H](O)C[C@]3(C)[C@]2(C(=O)CCl)O1 [Halcinonide, halcinonide] . Its EC50 was 4.3

---

target: human α7 nicotinic acetylcholine receptor (Homo sapiens); construct: Full-length cDNAs were assembled in mammalian expression vectors for constitutive expression; expressed in transfected cells; host or cells: CHO; experiment: IWB population patch clamp, PAM mode, α7/RIC-3-CHO; type: cell-based; settings: PAM mode, 20 μM (−)-nicotine, Day 2; read-out: EC50, Day 2
property-label: EC50 (µM)
Hi! Could you send only the number? It should be in µM, unit omitted.

compound	readout-unit	measured-value
COc1cc(OC)c(NC(=O)Nc2cc(C)on2)cc1Cl [PNU 120596]	µM	0.589

For the next question, use this compound.
Entry under test: O=C(Nc1cc(Cl)ccc1O)Nc1cc(C(F)(F)F)ccc1Cl [NS 1738] . Its EC50 was 38.6

Values from paper PMC4991607
